System: tyrosinase from mushroom
Assay: Inhibition of commercial mushroom tyrosinase (L-DOPA or L-tyrosine substrate)
Assay type: biochemical
Settings: L-DOPA
ENDPOINT: Tyrosinase inhibition with L-DOPA [%]

Worked examples follow.
COMPOUND | Tyrosinase inhibition with L-DOPA [%]
O=C(/C=C/c1ccc(Cl)cc1Cl)NCCCCCO | 20.53±2.84% (500 µM)
CCC(CO)NC(=O)/C=C/c1ccc(C)cc1 (stereo not drawn) | 21.81±2.31% (500 µM)
Cc1ccc(/C=C/C(=O)NCCCCO)cc1 | 16.89±7.94% (500 µM)
CCC(O)CNC(=O)/C=C/c1ccc(Cl)cc1Cl (stereo not drawn) | 5.8±3.04% (500 µM)
Cc1ccc(/C=C/C(=O)NC(C)CO)cc1 (stereo not drawn) | 22.96±6.64% (500 µM)

Dear colleague, could you please provide Tyrosinase inhibition with L-DOPA [%] for the compounds listed below?
1. CCC(O)CNC(=O)/C=C/c1ccc(Cl)cc1 (stereo not drawn)
2. CCC(CO)NC(=O)/C=C/c1ccc(Cl)cc1Cl (stereo not drawn)
3. Cc1ccc(/C=C/C(=O)NCCCCCO)cc1
4. O=C(/C=C/c1ccc(Cl)cc1Cl)NCCCO
5. O=C(/C=C/c1ccccc1)NCCCO
6. O=C(/C=C/c1ccccc1)NCCCCCO

OUTPUT:
1. 60.76±1.99% (500 µM)
2. 0.21±5.64% (500 µM)
3. 30.43±0.88% (500 µM)
4. 18.63±1.67% (500 µM)
5. 34.23±2.32% (500 µM)
6. 47.96±1.83% (500 µM)

###

Give measured Keratinocytes (HaCaT) LDH for each item. Keep answers brief.
Test system: Keratinocytes (HaCaT)
Experiment: Safety, LDH test in keratinocytes
Assay type: cell-based
Details: 100 µM; 48 hours; positive control Triton X-100

Worked examples follow.
COMPOUND | RESULT
Cc1ccc(/C=C/C(=O)NCCCCCO)cc1 [H-415/21] | 2.95 percentage of positive control
O=C(/C=C/c1ccc(Cl)cc1)NCCO [H-427/21] | 2.76 percentage of positive control
O=C(/C=C/c1ccccc1)NCCCCCO [Compound A-133] | 3.23 percentage of positive control
O=C(/C=C/c1ccc(Cl)cc1)NCCCO [H-330/21] | 3.66 percentage of positive control

Now look at this entry.
Quick note, Keratinocytes (HaCaT) LDH for O=C(/C=C/c1ccc(Cl)cc1)NCCCCCO [Compound A-111] landed at 4.69 percentage of positive control

###

Give measured Increase in the number of yellow wells compared to the reference level for each item. Keep answers brief.
System: S. typhimurium TA1535
Assay: Ames microplate test, TA1535;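 further: bacteria exposed to compound 90 min at 37 °C, then kept 48 h at 37 °C with indicator medium in 384-well plates, scoring wells that turned yellow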
Conditions: 0.5 mM, +S9
Numbers only.

Worked examples follow.
MOLECULE | NUMERIC_VALUE
CCC(O)CNC(=O)/C=C/c1ccc(Cl)cc1 (stereo not shown) | 0.27
O=C(/C=C/c1ccc(Cl)cc1)NCCCCCO | 0.58
O=C(/C=C/c1ccccc1)NCCCCCCO | 0.54

Now look at this entry.
Quick note, Increase in the number of yellow wells compared to the reference level for O=C(/C=C/c1ccccc1)NCCCCCO landed at 0.47

###

Give measured Keratinocytes (HaCaT) LDH for each item. Keep answers brief.
Tested on: Keratinocytes (HaCaT)
Assay: Safety, LDH test in keratinocytes
Assay type: cell-based
Settings: 150 µM; 48 hours; positive control Triton X-100

STRUCTURE_SMILES | ENDPOINT | RESULT
O=C(/C=C/c1ccc(Cl)cc1)NCCO | Keratinocytes (HaCaT) LDH | 3.69 percentage of positive control
O=C(/C=C/c1ccccc1)NCCCCCO | Keratinocytes (HaCaT) LDH | 3.08 percentage of positive control
Cc1ccc(/C=C/C(=O)NCCCCCO)cc1 | Keratinocytes (HaCaT) LDH | 6.70 percentage of positive control
O=C(/C=C/c1ccc(Cl)cc1)NCCCO | Keratinocytes (HaCaT) LDH | 5.33 percentage of positive control

Quick note, Keratinocytes (HaCaT) LDH for O=C(/C=C/c1ccc(Cl)cc1)NCCCCCO landed at 4.43 percentage of positive control

###

Give measured Hepatocarcinoma HepG2 LDH for each item. Keep answers brief.
Tested on: Hepatocarcinoma HepG2
Test: Safety, LDH test in HepG2
Assay type: cell-based
Conditions: 250 µM; 48 hours; positive control Triton X-100

COMPOUND | Hepatocarcinoma HepG2 LDH
O=C(/C=C/c1ccc(Cl)cc1)NCCCCCO [Compound A-111] | 9.75 percentage of positive control
O=C(/C=C/c1ccc(Cl)cc1)NCCCO [H-330/21] | 19.02 percentage of positive control
O=C(/C=C/c1ccccc1)NCCCCCO [Compound A-133] | 16.13 percentage of positive control
O=C(/C=C/c1ccc(Cl)cc1)NCCO [H-427/21] | 13.51 percentage of positive control

Now look at this entry.
Quick note, Hepatocarcinoma HepG2 LDH for Cc1ccc(/C=C/C(=O)NCCCCCO)cc1 [H-415/21] landed at 15.47 percentage of positive control

###

Target: tyrosinase from mushroom
Assay: Inhibition of commercial mushroom tyrosinase (L-DOPA or L-tyrosine substrate)
Type: biochemical
Details: L-tyrosine; read-out: Tyrosinase inhibition with L-tyrosine, IC50
Give measured IC50 for each item. Keep answers brief.
Numbers only, in µM.

Worked examples follow.
COMPOUND | IC50, µM
CC(CO)NC(=O)/C=C/c1ccc(Cl)cc1 (stereo not drawn) [Compound A-102] | 164
O=C(/C=C/c1ccccc1)NCCCCCCO [H-425/21] | 764
O=C(/C=C/c1ccc(Cl)cc1)NCCCCO [H-331/21] | 103

Dear colleague, could you please provide IC50 for the compounds listed below?
1. CCC(O)CNC(=O)/C=C/c1ccc(Cl)cc1 (stereo not drawn) [Compound A-67]
2. O=C(/C=C/c1ccc(Cl)cc1)NCCCCCO [Compound A-111]
3. O=C(/C=C/c1ccccc1)NCCCCCO [Compound A-133]
4. CC(C)C(CO)NC(=O)/C=C/c1ccc(Cl)cc1 (stereo not drawn) [Compound A-106]
5. O=C(/C=C/c1ccc(Cl)cc1)N1CCC(O)CC1 [Compound A-99]

OUTPUT:
[165, 37, 450, 405, 177]

###

Tested on: neuroblastoma SH-SY5Y
Test: Safety, MTT test in SH-SY5Y
Assay type: cell-based
Details: 150 µM; 48 hours
Give measured Neuroblastoma SH-SYSY MTT for each item. Keep answers brief.

Worked examples follow.
STRUCTURE_SMILES | Neuroblastoma SH-SYSY MTT
Cc1ccc(/C=C/C(=O)NCCCCCO)cc1 | 99.32±2.96 % of solvent control
O=C(/C=C/c1ccc(Cl)cc1)NCCCO | 99.86±3.76 % of solvent control
O=C(/C=C/c1ccc(Cl)cc1)NCCCCCO | 99.32±3.36 % of solvent control

Dear colleague, could you please provide Neuroblastoma SH-SYSY MTT for the molecules listed below?
1. O=C(/C=C/c1ccc(Cl)cc1)NCCO
2. O=C(/C=C/c1ccccc1)NCCCCCO

OUTPUT:
1: 100.96±2.72 % of solvent control; 2: 100.75±3.01 % of solvent control

###

System: S. typhimurium TA100
Assay: Ames microplate test, TA100;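 further: reference level is the mean solvent-control yellow wells plus SD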
Assay type: cell-based, Salmonella typhimurium
Conditions: 0.5 mM, +S9
Method: Bacteria were grown overnight in growth medium. Table 9. Ames microplate test results.
Give measured Increase in the number of yellow wells compared to the reference level for each item. Keep answers brief.
One number for each entry.

COMPOUND | NUMERIC_VALUE
O=C(/C=C/c1ccccc1)NCCCCCO | 0.83

Dear colleague, could you please provide Increase in the number of yellow wells compared to the reference level for the compounds listed below?
1. O=C(/C=C/c1ccccc1)NCCCCCCO
2. O=C(/C=C/c1ccc(Cl)cc1)NCCCCCO
3. CCC(O)CNC(=O)/C=C/c1ccc(Cl)cc1 (stereo not shown)

OUTPUT:
1. 0.50
2. 0.97
3. 0.78

###

Give measured NDI (nuclear division index) for each item. Keep answers brief.
Test system: Chinese hamster ovary cell line (CHO-K1)
Test: Genotoxicity in the micronucleus test in CHO-K1 cells
Assay type: cell-based
Settings: 150 µM
Numbers only.

Worked examples follow.
COMPOUND | TESTED_ON | NDI (nuclear division index)
O=C(/C=C/c1ccccc1)NCCCCCO | Chinese hamster ovary cell line (CHO-K1) | 1.65
O=C(/C=C/c1ccccc1)NCCCCCCO | Chinese hamster ovary cell line (CHO-K1) | 1.52
CCC(O)CNC(=O)/C=C/c1ccc(Cl)cc1 (stereo not drawn) | Chinese hamster ovary cell line (CHO-K1) | 1.62
CC(CO)NC(=O)/C=C/c1ccc(Cl)cc1 (stereo not drawn) | Chinese hamster ovary cell line (CHO-K1) | 1.54
Cc1ccc(/C=C/C(=O)NCCCCCO)cc1 | Chinese hamster ovary cell line (CHO-K1) | 1.50

Quick note, NDI (nuclear division index) for O=C(/C=C/c1ccc(Cl)cc1)NCCCCCO landed at 1.64
